- TARGET ENTITY: Alpha-bungarotoxin (Bungarus multicinctus) (UniProt P60615)
- Sequence (P60615 whole entry, looked up): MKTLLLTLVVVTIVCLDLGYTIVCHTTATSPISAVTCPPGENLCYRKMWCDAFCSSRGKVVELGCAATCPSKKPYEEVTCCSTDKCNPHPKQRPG
- MEASUREMENT DESCRIPTION: alpha-bungarotoxin binders on microarray, profiling panel, artefact control for SMM control protein annotation, biochemical, small-molecule microarray, Alexa647 label, 635/667 nm fluorescence (AID 1117)
- CONDITION DETAILS: alpha-BTX-A647 binding fluorescence, higher = more signal
Record rule met whenever composite z-score is at 0.4 or higher; record rule not met when lower.

**Q:** Could you please find out whether `CCOC(=O)C[C@H]1[C@H](OC(=O)c2ccccc2-c2ccccc2)[C@@H](NC(=O)c2ccc3ccccc3n2)c2cc(OCCCO)ccc2N1C(=O)c1ccccc1` has composite z-score that meets 0.4 or exceeds it?
**A:** rule met

***
**Q:** Could you please find out whether `CCCCNC(=O)c1ccc(C#C[Si](C(C)C)(C(C)C)C(C)C)c(OC(C)=O)c1` has composite z-score that meets 0.4 or exceeds it?
**A:** rule met

**Q:** Could you please find out whether C=C(C)C1CCC(C(O)C2C=CC3C(=O)N(C)C(=O)C3N2Nc2cc(OC)c(OC)c(OC)c2)CC1 (configuration not stated) has composite z-score that meets 0.4 or exceeds it?
**A:** rule met

====

- TARGET ENTITY: Fibroblast growth factor 2 (Homo sapiens)
- MEASUREMENT DESCRIPTION: FGF2 binders on small-molecule microarrays, primary screen, biochemical, small-molecule microarray, 635/667 nm fluorescence (AID 1133)
- CONDITION DETAILS: small-molecule microarray binding, FGF2, fluorescence 635/667; higher = more signal
MEASURE NAME: composite z-score
Provide a numeric answer; units are not to be included.

Guide cases for composite z-score, answers given:
For reference, reported composite z-score for `O=C1N(CCS(=O)(=O)c2ccccc2)Cc2ccccc2[C@@H]2OC(c3ccc(OCCCO)cc3)=N[C@]12CCS(=O)(=O)c1ccccc1` stands at 1.7

For reference, reported composite z-score for NC(=O)N1C(=O)C2C(C1=O)C1C=C(CCCO)C2C(C2CC2)N1Cc1cccc(OC(F)(F)F)c1 (stereo not given) stands at -0.314

For reference, reported composite z-score for COc1cc(C(O)C2C=CC3C(=O)N(Cc4ccccc4)C(=O)C3N2n2cnnc2)cc(OC)c1OC (stereo not given) stands at 0.405

For reference, reported composite z-score for C=CCC(OC(C)=O)[C@@H]1[C@@H](N(Cc2ccc(-c3cccc(C(F)(F)F)c3)o2)C(=O)Cc2ccc(OC)cc2)c2cc(OCCCO)ccc2N1C(=O)Cc1ccc2ccccc2c1 (stereo not given in full) stands at -0.501

For reference, reported composite z-score for `CC(C)C[C@@H]1NC(=O)[C@H]2C[C@@H](C(=O)NCCCCCN)[C@@H](c3cccc(OCCO)c3)N2C1=O` stands at 0.181

For reference, reported composite z-score for `COCCOC(=O)N1C(=O)[C@@]2(c3cc(C#CCNC(N)=O)ccc31)[C@H](c1ccc(O)cc1)N1[C@H](c3ccccc3)[C@H](c3ccccc3)OC(=O)[C@H]1[C@@H]2C(N)=O` stands at -0.93

For reference, reported composite z-score for O=C1C2C=CC(C(O)c3cc(C(F)(F)F)cc(C(F)(F)F)c3)N(Nc3ccccc3F)C2C(=O)N1c1ccccc1 (stereo not given) stands at -0.215

For reference, reported composite z-score for `CC(C)CNC(=O)[C@@H]1c2ccccc2C(=O)N(C2CCCCC2)[C@H]1c1ccc(CO)cc1` stands at -0.184

For reference, reported composite z-score for `COc1ccc(C(=O)Nc2cccc(CN3C(=O)[C@@]4(O[C@@H](CC(=O)N(CCO)Cc5ccccc5)[C@H]([Si](C)(C)c5ccc(OC)cc5)[C@H]4C)c4ccccc43)c2)cc1` stands at 1.08

For reference, reported composite z-score for `C=C(C(=O)CC[C@@H](OC(=O)c1ccccc1-c1ccccc1C(=O)O)c1ccccc1OCCO)C(C)C` stands at 1.77

***
For reference, reported composite z-score for O=C1OCC=C[C@H]2OC34C=CCN(c5ccc6ccccc6c5)C(=O)[C@H]3N(CCCCCO)C(=O)[C@@H]4[C@@H]12 (stereo not given in full) stands at -1.42
